- Test system: TLR3, TLR7, TLR8 and RIG-1
- run.description: Intracellular immunogenicity of capped mRNA by RNA immunoprecipitation and quantitative PCR
- Assay type: cell-based
- experimental.context: relative to ARCA; Human-derived PBMC cells, 5 μg mRNA, Lipofectamine 2000, 24 h
test.readout: Intracellular immunogenicity of mRNA when using different Cap structures
The answer should be written as a number, with no unit following it.

Sample records with Intracellular immunogenicity of mRNA when using different Cap structures:
structure.as.smiles	tested.target	result.number
CO[C@@H]1[C@H](O)[C@@H](COP(=O)(O)O[C@H]2[C@@H](OC)[C@H](n3ccc(=O)[nH]c3=O)O[C@@H]2COP(=O)(O)OP(=O)(O)OP(=O)([O-])OC[C@H]2O[C@@H](n3c[n+](C)c4c(=O)[nH]c(N)nc43)[C@H](O)[C@@H]2O)O[C@H]1n1ccc(=O)[nH]c1=O	TLR3, TLR7, TLR8 and RIG-1	0.48
CO[C@@H]1[C@H](O)[C@@H](COP(=O)(O)O[C@H]2[C@@H](OC)[C@H](n3ccc(N)nc3=O)O[C@@H]2COP(=O)(O)OP(=O)(O)OP(=O)([O-])OC[C@H]2O[C@@H](n3c[n+](C)c4c(=O)[nH]c(N)nc43)[C@H](O)[C@@H]2OC)O[C@H]1n1ccc(=O)[nH]c1=O	TLR3, TLR7, TLR8 and RIG-1	0.4
CO[C@@H]1[C@H](O)[C@@H](COP(=O)(O)O[C@H]2[C@@H](OC)[C@H](n3cnc4c(N)ncnc43)O[C@@H]2COP(=O)(O)OP(=O)(O)OP(=O)([O-])OC[C@H]2O[C@@H](n3c[n+](C)c4c(=O)[nH]c(N)nc43)[C@H](O)[C@@H]2OC)O[C@H]1n1ccc(N)nc1=O	TLR3, TLR7, TLR8 and RIG-1	0.29

Alright, here's another compound for you.
I would be grateful if you could share the reported Intracellular immunogenicity of mRNA when using different Cap structures for CO[C@@H]1[C@H](O)[C@@H](COP(=O)(O)O[C@H]2[C@@H](OC)[C@H](n3ccc(N)nc3=O)O[C@@H]2COP(=O)(O)OP(=O)(O)OP(=O)([O-])OC[C@H]2O[C@@H](n3c[n+](C)c4c(=O)[nH]c(N)nc43)[C@H](O)[C@@H]2O)O[C@H]1n1ccc(=O)[nH]c1=O .
0.34
